Molecular target: Carbonic anhydrase 13 (Mus musculus)
Sequence (Q9D6N1 whole entry): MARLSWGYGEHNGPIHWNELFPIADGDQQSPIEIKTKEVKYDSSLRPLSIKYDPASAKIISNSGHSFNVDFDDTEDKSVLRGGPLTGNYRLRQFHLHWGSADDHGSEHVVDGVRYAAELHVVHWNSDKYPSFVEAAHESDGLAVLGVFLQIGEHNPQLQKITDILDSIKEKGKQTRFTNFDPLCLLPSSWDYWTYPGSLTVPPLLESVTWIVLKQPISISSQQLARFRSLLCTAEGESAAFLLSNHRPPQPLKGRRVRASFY
Experiment: Inhibition of mouse carbonic anhydrase 13 assessed as 4-nitrophenyl acetate hydrolysis
observable: IC50 (nM)
Write the answer as a number in nM, unit excluded.

GET /values?readout=IC50&item= CC(=O)Nc1nnc(S(N)(=O)=O)s1 [ACETAZOLAMIDE]
490
